- tgt: Prostaglandin G/H synthase 1 (Rattus norvegicus, UniProt Q63921)
- Sequence (Q63921 whole entry): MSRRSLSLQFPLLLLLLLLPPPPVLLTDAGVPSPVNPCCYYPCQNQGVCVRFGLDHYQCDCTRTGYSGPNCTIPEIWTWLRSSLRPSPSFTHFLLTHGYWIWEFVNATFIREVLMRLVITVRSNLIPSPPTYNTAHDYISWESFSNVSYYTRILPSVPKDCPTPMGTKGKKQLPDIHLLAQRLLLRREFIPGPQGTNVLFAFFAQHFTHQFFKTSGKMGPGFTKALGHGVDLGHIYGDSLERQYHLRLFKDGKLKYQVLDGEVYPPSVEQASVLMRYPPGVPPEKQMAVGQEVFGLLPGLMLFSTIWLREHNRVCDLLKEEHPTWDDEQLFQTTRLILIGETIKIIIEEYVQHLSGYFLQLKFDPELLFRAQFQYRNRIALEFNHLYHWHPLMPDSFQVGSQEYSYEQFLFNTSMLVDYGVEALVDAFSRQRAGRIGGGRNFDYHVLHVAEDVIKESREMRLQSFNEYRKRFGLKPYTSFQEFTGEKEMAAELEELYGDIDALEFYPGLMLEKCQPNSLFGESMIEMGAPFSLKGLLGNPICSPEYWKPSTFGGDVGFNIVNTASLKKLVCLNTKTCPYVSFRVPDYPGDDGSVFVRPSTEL
- Assay type: functional
AC50 listing for selected compounds.

Before answering, review these 4 worked examples.
CC(C)(CO)c1cc2cc(NC(=O)C3(c4ccc5c(c4)OC(F)(F)O5)CC3)c(F)cc2n1C[C@@H](O)CO : > 30 µM
Nc1nnc(-c2cccc(Cl)c2Cl)c(N)n1 : > 30 µM
CS(=O)(=O)NC(=O)CCC/C=C\C[C@H]1C(=O)C[C@@H](O)[C@@H]1/C=C/[C@@H](O)COc1ccccc1 : > 30 µM
CN(C)CCN(Cc1ccccc1)c1ccccn1 : > 10 µM

# input Entry CC[N+](CC)(CCNC(=O)C(=O)NCC[N+](CC)(CC)Cc1ccccc1Cl)Cc1ccccc1Cl has what AC50?
# output > 30 µM

# input Now consider C[C@H](Cn1cnc2c(N)ncnc21)OCP(=O)(O)O [TENOFOVIR ANHYDROUS] .
# output > 30 µM

# input Now consider CCOCC(O)COc1ccc(NC(=O)CC[S+](C)C)cc1 (stereo not given) .
# output > 30 µM

# input Now consider CC#CC(=O)N1CCC[C@H]1c1nc(-c2ccc(C(=O)Nc3ccccn3)cc2)c2c(N)nccn12 .
# output > 30 µM

# input Now consider CN1C(C(=O)Nc2ccccn2)=C(OC(=O)/C=C/c2ccccc2)c2ccccc2S1(=O)=O [PIROXICAM CINNAMATE] .
# output > 300 µM
